Taken from ChEMBL document CHEMBL1201862.

What EC50 was measured for each of the following?
# Assay Details: Luminescence Cell-Based Dose Confirmation HTS to Identify Activators of 5'UTR Stem-Loop Driven Alpha-Synuclein mRNA Translation in H4 Neuroglioblastoma Cells. [Related pubchem assays: 1829 (Project Summary), 1814 (Primary HTS)]
# Assay type: functional
Active and inactive are the calls of the source.

[[record]]
compound = "COC(=O)Cn1ncn2c(cc3oc(C)cc32)c1=O"
readout_value = "2.68 µM (active)"

[[record]]
compound = "Cc1ccc2[nH]c3c(NCc4ccco4)ncnc3c2c1"
readout_value = "29.1 µM (active)"

[[record]]
compound = "Fc1ccccc1OCCSc1[nH]cnc2ncnc1-2"
readout_value = "> 120 µM (not active)"


For every item below, please supply its EC50.
1. O=C(/C=C/c1ccco1)NC1=NCCS1
2. COc1ccc(CN2CCn3ncc(C(=O)Nc4ccccc4)c3C2=O)cc1

Key:
1: < 0.1 µM (active); 2: 14.2 µM (active)

Below are 6 compounds. Give each one its EC50.
1. O=C1C2=[N+]([O-])[C@H]3CCCC[C@H]3[N+]([O-])=C2c2ccccc21
2. CC1(C)CN=C(N(Cc2ccccc2)C(=O)Nc2ccccc2)S1
3. Cc1cc(C)n(CCc2nc(-c3cc4ccccc4o3)cs2)n1
4. COc1cccc2nc(O)c(-c3ccccc3)cc12
5. CCOC(=O)N1CCN(/C=C(\C#N)c2nc3ccccc3s2)CC1
6. Cc1ccc(-n2nc(C)c3c2OC(N)=C(C#N)C3c2cccs2)cc1 (configuration not stated)

Key:
1: > 120 µM (not active); 2: 12.5 µM (active); 3: 7.17 µM (active); 4: 9.22 µM (active); 5: 38 µM (active); 6: > 120 µM (not active)

Exercise: Looking for the measured EC50 of CCN1C(=S)SC(=O)C1=C1C=C(C)N(CCO)C(C)=C1 , can you help?
Key: 0.102 µM (active)

---

Record form. Attribute: AC50. Fill in for each entry.
# Subject Of Test: Cytochrome P450 2C9 (Homo sapiens, UniProt P11712)
# Sequence (P11712 whole entry): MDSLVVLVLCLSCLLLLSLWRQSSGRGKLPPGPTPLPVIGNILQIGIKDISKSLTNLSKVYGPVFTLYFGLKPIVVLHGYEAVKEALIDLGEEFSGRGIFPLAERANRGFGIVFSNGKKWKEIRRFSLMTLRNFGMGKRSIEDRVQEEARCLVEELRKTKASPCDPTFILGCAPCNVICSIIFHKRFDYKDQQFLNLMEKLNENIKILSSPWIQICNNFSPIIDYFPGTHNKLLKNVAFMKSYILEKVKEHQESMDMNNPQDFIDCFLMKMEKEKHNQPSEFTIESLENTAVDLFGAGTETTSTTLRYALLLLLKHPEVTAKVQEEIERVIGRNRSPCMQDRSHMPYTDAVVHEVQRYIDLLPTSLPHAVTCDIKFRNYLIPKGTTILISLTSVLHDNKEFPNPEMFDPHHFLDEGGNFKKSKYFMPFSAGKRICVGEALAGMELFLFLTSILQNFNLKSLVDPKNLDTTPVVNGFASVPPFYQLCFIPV

Record AC50 per entry; entries follow.
1. CCCc1cc2c(cc1NC(=O)c1ccccc1C)OCO2
2. N#Cc1ccc(-c2ccc(F)cc2)nc1Sc1ccccc1
3. CN(Cc1ccco1)c1ncnc2ccc(-c3ccc4c(c3)OCO4)cc12
4. C=CC(=O)NC(C)(C)Cc1ccccc1
5. COc1cccc(Cn2c(=O)c(-c3cn(C)c4ccccc34)nc3cnc(OC)nc32)c1
6. CCCNC(=O)OC[C@@H]1O[C@H](CCO/N=C(\C)CCC(=O)OC[C@@H]2O[C@H](c3ccccc3)C=C[C@@H]2Oc2ccc(OC)cc2)C=C[C@@H]1Oc1ccc(OC)cc1
7. N=C(N)Nc1nc(CCN2C(=O)c3ccccc3C2=O)cs1

Key:
1. 0.0562 µM (inconclusive)
2. 5.01 µM (inconclusive)
3. 1.26 µM (inconclusive)
4. 10 µM (inconclusive)
5. 12.6 µM (inconclusive)
6. 3.98 µM (inconclusive)
7. 17.8 µM (inconclusive)

---

I'd be grateful if you could share measured EC50 for these entries.
# Subject Of Test: UniProt:G5EF15
# Sequence (G5EF15 whole entry): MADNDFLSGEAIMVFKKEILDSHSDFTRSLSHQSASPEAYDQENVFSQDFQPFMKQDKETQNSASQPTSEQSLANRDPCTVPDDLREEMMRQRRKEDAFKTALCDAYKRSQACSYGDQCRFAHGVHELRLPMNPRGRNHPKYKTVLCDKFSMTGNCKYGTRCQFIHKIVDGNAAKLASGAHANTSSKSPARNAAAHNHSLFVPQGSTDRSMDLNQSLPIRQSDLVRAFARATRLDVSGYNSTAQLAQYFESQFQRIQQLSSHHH
# Assay Details: inhibitors of POS-1/mex-3 RNA binding, dose response, biochemical, fluorescence polarization (AID 1964);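 also: purified POS-1 fused to maltose binding protein made in E. coli; potency of compounds blocking POS-1 binding to fluorescent RNA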
Active and inactive are the calls of the source.

Check out these entries, answers already filled in.
[[record]]
molecule = "C/C(NCCN1CCCCC1)=C1/C(=O)NC(=O)N(c2ccc(Cl)cc2)C1=O"
measured_quantity = "EC50"
readout_value = "> 300 µM (not active)"

[[record]]
molecule = "CN(C)Cc1cc(O)c(CN(C)C)cc1O"
measured_quantity = "EC50"
readout_value = "22.3 µM (inconclusive)"


Batch of 4 molecules: report EC50 for each.
1. COC(=O)CCCC1=CC2=CC(=O)C(C)(OC(=O)c3cnc4ccccc4n3)C(=O)C2=CO1 (stereo unspecified)
2. CCCn1nc(C(=O)Nc2ccc3nc(C)sc3c2)c2ccccc2c1=O
3. CCn1c(C)cc(=S)c2ccccc21
4. Cc1nnc(N2C(=O)C(O)=C(C(=O)c3ccco3)C2c2ccc(F)cc2)s1 (stereo unspecified)

Key:
1: 12.7 µM (active); 2: > 300 µM (not active); 3: > 300 µM (not active); 4: 34.2 µM (active)
